The origin of these recorded values is patent US11040981B2.

molecular target: AXL (Homo sapiens, UniProt P30530)
Sequence (P30530 26-894): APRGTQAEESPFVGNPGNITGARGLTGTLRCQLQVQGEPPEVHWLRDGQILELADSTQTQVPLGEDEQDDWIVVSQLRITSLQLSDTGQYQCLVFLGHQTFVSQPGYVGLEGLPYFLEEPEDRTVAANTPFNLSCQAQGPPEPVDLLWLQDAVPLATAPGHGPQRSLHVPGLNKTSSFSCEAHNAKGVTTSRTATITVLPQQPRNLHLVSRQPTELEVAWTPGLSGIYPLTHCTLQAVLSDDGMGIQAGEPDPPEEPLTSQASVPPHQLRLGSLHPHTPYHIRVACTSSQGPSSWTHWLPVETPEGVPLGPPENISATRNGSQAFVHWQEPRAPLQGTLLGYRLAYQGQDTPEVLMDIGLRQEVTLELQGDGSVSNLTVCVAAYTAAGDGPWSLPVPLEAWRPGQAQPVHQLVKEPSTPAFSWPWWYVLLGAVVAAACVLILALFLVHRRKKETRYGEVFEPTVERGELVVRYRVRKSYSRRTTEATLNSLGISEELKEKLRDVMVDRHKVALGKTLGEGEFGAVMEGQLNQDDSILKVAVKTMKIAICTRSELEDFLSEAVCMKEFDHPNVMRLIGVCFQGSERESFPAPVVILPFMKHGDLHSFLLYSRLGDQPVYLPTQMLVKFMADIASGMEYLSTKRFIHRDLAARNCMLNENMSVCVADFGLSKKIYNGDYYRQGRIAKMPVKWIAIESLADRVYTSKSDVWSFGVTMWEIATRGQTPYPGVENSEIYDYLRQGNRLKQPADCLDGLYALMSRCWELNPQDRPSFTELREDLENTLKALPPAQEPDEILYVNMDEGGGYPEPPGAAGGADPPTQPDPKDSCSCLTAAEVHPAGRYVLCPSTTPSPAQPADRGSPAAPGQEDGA
pIC50: −log10 of the molar value.
QUANTITY: pIC50

In [3]: df
Out[3]:
                                   molecule                   system_under_test  quantity  readout_value
0  COC[C@H](C)Nc1ncc2c(C3=C[C@H]4CCC(C3)N4C(C)=O)cc([C@H]3CC[C@H](O)CC3)n2n1  AXL (Homo sapiens, UniProt P30530)     pIC50         ≥ 7.00
1  C[C@@H](CC(F)(F)F)Nc1ncc2c(C3=CCNCC3)cc([C@H]3CC[C@H](O)CC3)n2n1  AXL (Homo sapiens, UniProt P30530)     pIC50         ≥ 7.00
2  COC[C@H](C)Nc1ncc2c(-c3cnn(C(C)(C)C(=O)N4CCCC4)c3)cc([C@H]3CC[C@H](O)CC3)n2n1  AXL (Homo sapiens, UniProt P30530)     pIC50         ≥ 7.00
3  COC[C@H](C)Nc1ncc2c(-c3cncc(C(=O)N4CCCC4)c3)cc([C@H]3CC[C@H](O)CC3)n2n1  AXL (Homo sapiens, UniProt P30530)     pIC50   6.00 to 7.00
4  COC[C@H](C)Nc1ncc2c(C3=C[C@@H]4CC[C@H](C3)N4CC(F)(F)F)cc([C@H]3CC[C@H](O)CC3)n2n1  AXL (Homo sapiens, UniProt P30530)     pIC50         ≥ 7.00
5  COC[C@H](C)Nc1ncc2c(-c3cnn(C(C)(C)C(=O)C4CCc5sc(C)nc5C4)c3)cc([C@H]3CC[C@H](O)CC3)n2n1 (some centres unmarked)  AXL (Homo sapiens, UniProt P30530)     pIC50         ≥ 7.00

stdin: Would you please give the reported pIC50 of COC[C@H](C)Nc1ncc2c(-c3cncc(F)c3)cc([C@H]3CC[C@H](O)CC3)n2n1 with AXL (Homo sapiens, UniProt P30530)?
stdout: 6.00 to 7.00

stdin: Would you please give the reported pIC50 of COC[C@H](C)Nc1ncc2c(-c3ccnc(O[C@H]4CCCNC4)c3)cc([C@H]3CC[C@H](O)CC3)n2n1 with AXL (Homo sapiens, UniProt P30530)?
stdout: ≥ 7.00

stdin: Fill in: pIC50 on AXL (Homo sapiens, UniProt P30530), entry COC[C@H](C)Nc1ncc2c(C3=C[C@@H]4CC[C@H](C3)N4C(C)=O)cc([C@H]3CC[C@H](O)CC3)n2n1
stdout: ≥ 7.00

stdin: Please respond with reported pIC50 (system AXL (Homo sapiens, UniProt P30530)) for COC[C@H](C)Nc1ncc2c(-c3ccnc(N4CCC5(COC5)C4)c3)cc([C@H]3CC[C@H](O)CC3)n2n1 .
stdout: ≥ 7.00

stdin: Fill in: pIC50 on AXL (Homo sapiens, UniProt P30530), entry COC[C@H](C)Nc1ncc2c(-c3ccc(CN4CCN(C)CC4)nc3)cc([C@H]3CC[C@H](O)CC3)n2n1
stdout: ≥ 7.00

stdin: Provide the reported pIC50 (system: AXL (Homo sapiens, UniProt P30530)) for COC[C@H](C)Nc1ncc2c(-c3ccc(C4(C(=O)O)CC4)cc3)cc([C@H]3CC[C@H](O)CC3)n2n1
stdout: ≥ 7.00

stdin: Quote pIC50 with test system AXL (Homo sapiens, UniProt P30530) for COC[C@H](C)Nc1ncc2c(-c3ccn(C)n3)cc([C@H]3CC[C@H](O)CC3)n2n1
stdout: 6.00 to 7.00

stdin: Quote pIC50 with test system AXL (Homo sapiens, UniProt P30530) for CC1(Nc2ncc3c(-c4cnn(C5COC5)c4)cc(C4CCC(O)CC4)n3n2)COC1 (centres unmarked)
stdout: ≥ 7.00
